study target: huFXII-his (human) (UniProt P00748)
Sequence (P00748 20-615, form in doubt): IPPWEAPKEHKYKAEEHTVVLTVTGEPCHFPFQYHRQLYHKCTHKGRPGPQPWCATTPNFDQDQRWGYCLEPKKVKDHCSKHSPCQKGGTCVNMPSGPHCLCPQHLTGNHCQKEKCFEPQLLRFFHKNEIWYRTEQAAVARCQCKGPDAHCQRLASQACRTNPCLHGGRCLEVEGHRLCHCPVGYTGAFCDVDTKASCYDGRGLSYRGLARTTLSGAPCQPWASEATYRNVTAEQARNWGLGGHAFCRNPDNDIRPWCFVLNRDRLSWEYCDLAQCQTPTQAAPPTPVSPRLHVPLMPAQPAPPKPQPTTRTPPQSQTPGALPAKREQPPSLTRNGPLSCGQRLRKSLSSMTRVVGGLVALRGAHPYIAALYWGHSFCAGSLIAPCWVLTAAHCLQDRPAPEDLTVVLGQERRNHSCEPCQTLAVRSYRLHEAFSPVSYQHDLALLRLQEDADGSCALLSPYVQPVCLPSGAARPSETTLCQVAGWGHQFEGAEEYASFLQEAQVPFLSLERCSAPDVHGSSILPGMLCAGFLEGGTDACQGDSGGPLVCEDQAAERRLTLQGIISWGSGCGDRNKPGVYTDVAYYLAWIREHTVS
experiment summary: cell-based or functional assay
Reported values of IC50 of inhibition of cleavage of chemical substrate S2302 by FXIIa (OD405) for individual entries
Express the result in µg/mL but write the number alone.

INSERT INTO assay_data (binder, result_units, recorded_result) VALUES
  ('FX-Y17-Y40 (antibody, V domains shown) VH: EVQLLESGGGLVQPGGSLRLSCAGSGFSFGSQTMSWVRQAPGKGLEWVSSISVISGRTYYADSVKGRFTISRDNSKNTLYLQMNSLRAEDTAVYYCTKAHAFDVWGQGTMVTVSS VL: EIVLTQSPATLSVSPGERATLSCRASQSVWSNLAWYQQKPGQAPRLLIYGASTRATGIPARFSGSGSGTEFTLTISSLQSEDFAVYYCQQYHKWPLSFGGGTKVEIK', 'µg/mL', 0.0155),
  ('FX-Y17-Y16 (antibody, V domains shown) VH: EVQLLESGGGLVQPGGSLRLSCAGSGFSFGSQTMSWVRQAPGKGLEWVSSISVISGRSYYADSVKGRFTISRDNSKNTLYLQMNSLRAEDTAVYYCAKSHAFDVWGQGTMVTVSS VL: EIVLTQSPATLSVSPGERATLSCRASQSVYSALAWYQQKPGQAPRLLIYGASTRATGIPARFSGSGSGTEFTLTISSLQSEDFAVYYCQQYHKWPLSFGGGTKVEIK', 'µg/mL', 0.021);

[in] Recall and state the measured IC50 of inhibition of cleavage of chemical substrate S2302 by FXIIa (OD405) for FX-Y17-Y2 (antibody, V domains shown) VH: EVQLLESGGGLVQPGGSLRLSCAGSGFSFGSQTMSWVRQAPGKGLEWVSSISHISGRTYYADSVKGRFTISRDNSKNTLYLQMNSLRAEDTAVYYCTKSHAFDVWGQGTMVTVSS VL: EIVLTQSPATLSVSPGERATLSCRASQSVYSALAWYQQKPGQAPRLLIYGASTRATGIPARFSGSGSGTEFTLTISSLQSEDFAVYYCQQNNKWPLSFGGGTKVEIK .
[out] 0.0178

[in] Recall and state the measured IC50 of inhibition of cleavage of chemical substrate S2302 by FXIIa (OD405) for FX-Y17-Y19 (antibody, V domains shown) VH: EVQLLESGGGLVQPGGSLRLSCAGSGFSFGSQTMSWVRQAPGKGLEWVSSISVISKRTYYADSVKGRFTISRDNSKNTLYLQMNSLRAEDTAVYYCTRSHAFDVWGQGTMVTVSS VL: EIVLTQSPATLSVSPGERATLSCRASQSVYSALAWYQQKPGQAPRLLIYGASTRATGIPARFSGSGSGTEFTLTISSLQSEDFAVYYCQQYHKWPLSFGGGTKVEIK .
[out] 0.0214

[in] Recall and state the measured IC50 of inhibition of cleavage of chemical substrate S2302 by FXIIa (OD405) for FX-Y17-Y7 (antibody, V domains shown) VH: EVQLLESGGGLVQPGGSLRLSCAGSGFSFGSQTMSWVRQAPGKGLEWVSSISVISGRAYYADSVKGRFTISRDNSKNTLYLQMNSLRAEDTAVYYCTKSHAFDVWGQGTMVTVSS VL: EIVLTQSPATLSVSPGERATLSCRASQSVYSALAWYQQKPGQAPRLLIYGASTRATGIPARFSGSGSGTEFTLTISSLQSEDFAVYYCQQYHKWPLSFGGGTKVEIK .
[out] 0.02
